These data points were gathered from paper PMC3365588.

- tgt: HIV-1 RT (Human immunodeficiency virus type 1 group M subtype B)
- method: Direct binding assay using intrinsic protein fluorescence
- assay_setup: KD^fluor, Enzyme + MgCl2, free enzyme (no substrate)
assay_readout: pKd
One number for each entry, as −log10 of the molar value.

Recorded pKd for CC(C)c1ccc(O)c(=O)c(O)c1 [β-thujaplicinol] with HIV-1 RT (Human immunodeficiency virus type 1 group M subtype B), please?
6.00

---

- tgt: HIV-1 RT (Human immunodeficiency virus type 1 group M subtype B, UniProt P03366)
- method: Direct binding assay using surface plasmon resonance
- assay_setup: KD^SPR, Enzyme + MgCl2, free enzyme (no substrate)
assay_readout: Kd
State the result as a value with its unit after it.

Which measured Kd value corresponds to CC(C)c1ccc(O)c(=O)c(O)c1 ?
6 µM
